ASSAY_SYSTEM: gst-c-CrkSH3(1) (Example 2) (murine, UniProt Q64010)
PROTOCOL_TEXT: rounded value given in the summary of Example 3 for the peptide and Crk SH3-N; measured by fluorescence in Example 2
OBSERVED_PROPERTY: Kd

BINDER	OBSERVED_MEASUREMENT
PPPALPPKKR [CB-1 peptide (PPPALPPKKR)]	~2000 nM
